B1: PDZK1 (parent)
chain: QKEQGLSDNILSPVMNGGVQTWTQ

# Variants of: B1
# test.name: protein stability index of a GFP-peptide fusion (GPS, HEK-293T) (PSI 1-6); higher = more stable;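 also: lentivirally expressed fusions sorted by FACS into six bins by GFP to DsRed ratio, PSI derived from sequencing read proportions per bin multiplied by bin number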
# conditions.used: c terminus: a fixed tail appended
quantity.measured: protein stability index
Please respond with just the number, no unit label.

S7F : 2
E3S : 2.02

// moving on: another record for protein stability index
Recorded protein stability index for N9R , please? 2.05
